For each entry below, report its Ki value.
// note: answer is a bare numeric in pM

Ask: Please tell me: Ki of `CCc1cc(N2CC(=O)N(C)C2)c2nc(C)cc(N3CCc4c(cc(Cn5ccnc5)cc4-c4cn(C)nc4C(F)(F)F)C3=O)c2c1` , system WDR5 (Homo sapiens)?
Reply: 23

Ask: Please tell me: Ki of `CCc1cc(F)c2cncc(N3CCc4c(cc(Cn5ccnc5)cc4-c4cn(C)nc4C(F)(F)F)C3=O)c2c1` , system WDR5 (Homo sapiens)?
Reply: 31

----------
System: MV4:11 human cancer cell lines
Assay: Cellular viability / anti-proliferative assay, CellTiter-Glo, 5 day protocol
Type: cell-based
Conditions: Homo sapiens, MV4-11, 120 h, MV4:11 cells; 5 day incubation; CellTiter-Glo; mean of at least two replicates; read-out: GI50 on cellular proliferation of MV4:11 human cancer cell lines
Method: Cellular Viability of Human Tumor Cell Lines Anti-proliferative activity using MLL-harboring cell lines. […] After a set incubation period, 5 day protocol, the viability of cells in each well is assessed using the CellTiter-Glo assay (Promega), read on a 96 Microplane Luminometer (Cytation 3, BioTek). Serial dilutions of each cell type are performed in all assays to generate standard curves and the final densities of cells are determined within the dynamic range of the instrument. […]
For each entry below, report its log10 GI50 value.
On a log10 scale: recorded GI50, unit µM.

Ask: Quick one: log10 GI50 of `COc1cnc2cccc(N3CCc4c(cc(Cn5ccnc5)cc4-c4cn(C)nc4C(F)(F)F)C3=O)c2c1` ?
Reply: -1.47

Ask: Quick one: log10 GI50 of `COc1cc(C(=O)NC2CN(C(C)=O)C2)c2nccc(N3CCc4c(cc(Cn5ccnc5)cc4-c4cn(C)nc4C(F)(F)F)C3=O)c2c1` ?
Reply: -1.37

Ask: Quick one: log10 GI50 of `Cc1nccn1Cc1cc2c(c(-c3cn(C)nc3C(F)(F)F)c1)CCN(c1cn(C)c3ncc(F)cc13)C2=O` ?
Reply: -0.42

Ask: Quick one: log10 GI50 of `COc1ccc2nccc(N3CCc4c(cc(Cn5ccnc5)cc4-c4cn(C)nc4C(F)(F)F)C3=O)c2c1` ?
Reply: -1.35

Ask: Quick one: log10 GI50 of `CCn1cc(-c2cc(Cn3ccnc3)cc3c2CCN(c2cccc4ncc(OC)cc24)C3=O)c(C(F)(F)F)n1` ?
Reply: -1.21

Ask: Quick one: log10 GI50 of `COc1ccc(N2CCc3c(cc(Cn4ccnc4)cc3-c3cn(C)nc3C(F)(F)F)C2=O)c2cc(C)cnc12` ?
Reply: -0.68

Ask: Quick one: log10 GI50 of Cc1ccc2c(c1)C(N1CCc3c(cc(Cn4ccnc4C)cc3-c3cn(C)nc3C(F)(F)F)C1=O)CCO2 (centres unmarked) ?
Reply: -1.60

Ask: Quick one: log10 GI50 of `CCc1nc2cccc(N3CCc4c(cc(Cn5ccnc5)cc4-c4cn(C)nc4C(F)(F)F)C3=O)c2cc1C` ?
Reply: -0.34

Ask: Quick one: log10 GI50 of `CCn1cc(-c2cc(Cn3ccnc3)cc3c2CCN(c2cc(C)nc4ccc(OC)cc24)C3=O)c(C(F)(F)F)n1` ?
Reply: -1.23

----------
System: MV4:11 human cancer cell lines
Assay: Cellular viability / anti-proliferative assay, CellTiter-Glo, 5 day protocol
Format: cell-based
Settings: Homo sapiens, MV4-11, 120 h, MV4:11 cells; 5 day incubation; CellTiter-Glo; mean of at least two replicates; read-out: GI50 on cellular proliferation of MV4:11 human cancer cell lines
For each entry below, report its GI50 value.

Ask: Quick one: GI50 of `CCc1cc(C(=O)NC2CN(C(=O)c3ccncc3)C2)c2nccc(N3CCc4c(cc(Cn5ccnc5)cc4-c4cn(C)nc4C(F)(F)F)C3=O)c2c1` ?
Reply: < 20 nM

Ask: Quick one: GI50 of `CCc1cc(OC)c2nccc(N3CCc4c(cc(Cn5ccnc5)cc4-c4cn(C)nc4C(F)(F)F)C3=O)c2c1` ?
Reply: < 20 nM

Ask: Quick one: GI50 of `COc1cc(C(=O)N2CCOCC2)c2nccc(N3CCc4c(cc(Cn5ccnc5)cc4-c4cn(C)nc4C(F)(F)F)C3=O)c2c1` ?
Reply: 444 nM

Ask: Quick one: GI50 of `COc1cc(N2CCOCC2)c2nc(C)cc(N3CCc4c(cc(Cn5ccnc5)cc4-c4cn(C)nc4C(F)(F)F)C3=O)c2c1` ?
Reply: 26 nM

Ask: Quick one: GI50 of `COc1cc(C2CCN(C)CC2)c2nc(C)cc(N3CCc4c(cc(Cn5ccnc5)cc4-c4cn(C)nc4C(F)(F)F)C3=O)c2c1` ?
Reply: < 20 nM

Ask: Quick one: GI50 of `CCc1cc(N2CCN3CCOC[C@@H]3C2)c2nc(C)cc(N3CCc4c(cc(Cn5ccnc5)cc4-c4cn(C)nc4C(F)(F)F)C3=O)c2c1` ?
Reply: < 20 nM

Ask: Quick one: GI50 of `COc1cc(C#N)c2nc(C)cc(N3CCc4c(cc(Cn5ccnc5)cc4-c4cn(C)nc4C(F)(F)F)C3=O)c2c1` ?
Reply: < 20 nM

Ask: Quick one: GI50 of `Cc1ccc2cncc(N3CCc4c(cc(Cn5ccnc5C)cc4-c4cn(C)nc4C(F)(F)F)C3=O)c2c1` ?
Reply: < 20 nM

Ask: Quick one: GI50 of `COc1cc(C(=N)NO)c2nc(C)cc(N3CCc4c(cc(Cn5ccnc5)cc4-c4cn(C)nc4C(F)(F)F)C3=O)c2c1` ?
Reply: 21 nM

Ask: Quick one: GI50 of `COc1cc(OC)c2nccc(N3CCc4c(cc(Cn5ccnc5)cc4-c4cn(C)nc4C(F)(F)F)C3=O)c2c1` ?
Reply: < 20 nM

Ask: Quick one: GI50 of `Cc1ccc2cncc(N3CCc4c(cc(Cn5ccnc5)cc4-c4cn(C)nc4C(F)(F)F)C3=O)c2c1` ?
Reply: 42 nM

Ask: Quick one: GI50 of `COc1ccc2c(c1)c(N1CCc3c(cc(Cn4ccnc4C)cc3-c3cn(C)nc3C(F)(F)F)C1=O)c(C)n2C` ?
Reply: 61 nM

Ask: Quick one: GI50 of `Cc1cc(N2CCc3c(cc(Cn4ccnc4)cc3-c3cn(C)nc3C(F)(F)F)C2=O)c2cc(N3CC(F)C3)cc(C#N)c2n1` ?
Reply: 49 nM

Ask: Quick one: GI50 of `COc1cnc2c(c1)[C@@H](N1CCc3c(cc(Cn4ccnc4C)cc3-c3cn(C)nc3C(F)(F)F)C1=O)CCC2` ?
Reply: < 20 nM

Entry source: patent US12692249B2
